Test system: full length IL-2 (amino acids 1-153) fused to Gaussia Luciferase
TEST SUMMARY: Dox Induced IL2-FL-Gluc Assay
Assay type: cell-based
STATED CONDITIONS: 24 hr, Dox inducible, 293FRT/TO cells; read-out: 24 hr Dox Inducible IL2FLGluc 293FRT/TO: Mean IC50
Some compounds, each annotated with its measured log10 of IC50.
Record value = log10 of IC50 given in nM.

C[C@H]1CN(S(=O)(=O)c2ccc(N(C)C)cc2)CCCN(CC(C)(C)C)CCCN(S(=O)(=O)N2CCc3cc(Cl)ccc3C2)C1: 1.86
CC(C)CCN1CCCN(S(=O)(=O)c2ccc(N(C)C)cc2)C[C@H](C)CN(S(=O)(=O)N2CCc3cc(Cl)ccc3C2)CCC1: 1.66
COc1ccc(N2CCN(S(=O)(=O)N3CCCN(CC4CCCCC4)CCCN(S(=O)(=O)c4ccc(N(C)C)cc4)C[C@H](C)C3)CC2)cc1: 2.21
Cc1cccc(C)c1N1CCN(S(=O)(=O)N2CCCN(CC3CCCCC3)CCCN(S(=O)(=O)c3ccc(N(C)C)cc3)C[C@H](C)C2)CC1: 2.23
C[C@H]1CN(S(=O)(=O)c2ccc(N(C)C)cc2)CCCN(Cc2ccon2)CCCN(S(=O)(=O)N2CCc3cc(Cl)ccc3C2)C1: 2.90

Data request: Query the reported log10 of IC50 for full length IL-2 (amino acids 1-153) fused to Gaussia Luciferase; item: C[C@H]1CN(S(=O)(=O)c2ccc(N(C)C)cc2)CCCN(CC2CCCC2)CCCN(S(=O)(=O)N2CCc3cc(Cl)ccc3C2)C1
Data returned: 1.89

* * *

TEST SUMMARY: In Vitro Microsome Stability Assay (mouse)
Format: in vitro ADME
STATED CONDITIONS: mouse liver microsomes, 30 min w/ NADPH
REPORTED METRIC: Liver Microsome Stability-% Left after 30 min w/ NADPH (%) Mouse
Respond numerically; units are % and should not be typed.

Data request: Field request: Liver Microsome Stability-% Left after 30 min w/ NADPH (%) Mouse | item: CN(C)c1ccc(S(=O)(=O)N2C/C=C/CN(S(=O)(=O)N3CCC(c4ccccc4)CC3)CCCN(CC3CCCCC3)CCC2)cc1
Data returned: 0.36

Data request: Would you mind telling me what Liver Microsome Stability-% Left after 30 min w/ NADPH (%) Mouse value was observed for CCc1ccc(CNS(=O)(=O)N2CCCN(CC3CCCCC3)CCCN(S(=O)(=O)c3ccc(N(C)C)cc3)C[C@H](C)C2)cc1 ?
Data returned: 0.14

Data request: Fill in the blank: the reported Liver Microsome Stability-% Left after 30 min w/ NADPH (%) Mouse of C[C@H]1CN(S(=O)(=O)c2ccc(N(C)C)cc2)CCCN(Cc2ccon2)CCCN(S(=O)(=O)N2CCc3cc(Cl)ccc3C2)C1 is ____.
Data returned: 1.01

Data request: So what does the record say about Liver Microsome Stability-% Left after 30 min w/ NADPH (%) Mouse for Cc1cc(F)ccc1N1CCN(S(=O)(=O)N2CCCN(CC3CCCCC3)CCCN(S(=O)(=O)c3ccc(N(C)C)cc3)C[C@H](C)C2)C(C)C1 (stereo in doubt) ?
Data returned: 72.8

Data request: Looking for the measured Liver Microsome Stability-% Left after 30 min w/ NADPH (%) Mouse of COc1cccc2c1CCN(S(=O)(=O)N1CCCN(CC3CCCCC3)CCCN(S(=O)(=O)c3ccc(N(C)C)cc3)C[C@H](C)C1)C2 , can you help?
Data returned: 13.2

Data request: Quick one: Liver Microsome Stability-% Left after 30 min w/ NADPH (%) Mouse of COc1cc(F)cc(N2CCN(S(=O)(=O)N3CCCN(CC4CCCCC4)CCCN(S(=O)(=O)c4ccc(N(C)C)cc4)CC4(CC4)C3)C[C@H]2C)c1 ?
Data returned: 58.5

Data request: Recorded Liver Microsome Stability-% Left after 30 min w/ NADPH (%) Mouse of C[C@H]1CN(S(=O)(=O)c2ccc(N(C)C)cc2)CCCN(CCC2CCCC2)CCCN(S(=O)(=O)N2CCc3cc(Cl)ccc3C2)C1 , please.
Data returned: 19.2
